meta.source: patent US11655243B2

target: human CNR2 receptors (CB2 receptor) (Homo sapiens (Human)); experiment: Radioligand binding assay, human CB2 (CNR2)
Sequence (P34972 whole entry): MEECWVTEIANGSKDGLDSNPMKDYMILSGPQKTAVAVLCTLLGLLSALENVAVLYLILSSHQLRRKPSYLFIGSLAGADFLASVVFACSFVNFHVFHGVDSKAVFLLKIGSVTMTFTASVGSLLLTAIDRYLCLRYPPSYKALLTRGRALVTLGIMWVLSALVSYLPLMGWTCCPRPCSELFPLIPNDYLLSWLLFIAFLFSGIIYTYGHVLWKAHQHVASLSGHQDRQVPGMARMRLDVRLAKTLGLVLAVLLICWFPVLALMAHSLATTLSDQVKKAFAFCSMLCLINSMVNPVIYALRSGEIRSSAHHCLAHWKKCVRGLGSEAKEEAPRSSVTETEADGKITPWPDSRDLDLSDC
measuredParameter: Ki (nM)
Express your answer in nM, writing the number without its unit.

Worked examples follow.
molecule	measuredParameter	readoutValue
CCC(CC)(NC(=O)c1ccc(N2CC(OC)C2)c(OC[C@H]2C[C@@H]2CO)n1)C(=O)OCF (stereo in doubt)	Ki	0.4
CCC(CC)(NC(=O)c1ccc(N2CC(O)C2)c(OC[C@H]2C[C@@H]2COCc2ccccc2)n1)C(=O)OCCCF (racemic)	Ki	755

Read the next record carefully.
What Ki value was documented for this molecule, CCC(CC)(NC(=O)c1ccc(N2CC(OS(=O)(=O)c3ccc(C)cc3)C2)c(OC[C@H]2C[C@@H]2CO)n1)C(=O)OCCCF (racemic) ?
11.7
